test system: TOV-112D (Ovarian Carcinoma); experiment: combination Emax (second highest fraction inhibited in the dose matrix, 72 h); higher = more inhibition; extreme values may be limits of the assay
combination Emax by entry:

>>> measuredvalue("CC1(C)CCC(CN2CCN(c3ccc(C(=O)NS(=O)(=O)c4ccc(NCC5CCOCC5)c([N+](=O)[O-])c4)c(Oc4cnc5[nH]ccc5c4)c3)CC2)=C(c2ccc(Cl)cc2)C1 [Venetoclax] + CCN(CCO)CCCOc1ccc2c(Nc3cc(CC(=O)Nc4cccc(F)c4)[nH]n3)ncnc2c1 [AZD2811] (first compound max 1 µM, 7x7, partner max 1 µM)")
0.266

# input for lookup
Qu. Please report the recorded combination Emax for NC1(C(=O)N[C@@H](CCO)c2ccc(Cl)cc2)CCN(c2ncnc3[nH]ccc23)CC1 [Capivasertib] + Cn1cnc2c(F)c(Nc3ccc(Br)cc3Cl)c(C(=O)NOCCO)cc21 [Selumetinib] (first compound max 10 µM, 7x7, partner max 10 µM) .
Ans. 0.313

----------
system: TOV-112D (Ovarian Carcinoma); test: Bliss excess, mean over the matrix (fraction); higher = more synergy
Bliss excess by entry:
Just the number, please.

Recorded results for 5 compounds are shown here.
>>> measuredvalue("Cc1c2c(nn1C)CSCc1cc(n(C)n1)CSc1cc(c3ccccc3c1)OCCCc1c(C(=O)O)n(C)c3c-2c(Cl)ccc13 [AZD5991] + CCN(CCO)CCCOc1ccc2c(Nc3cc(CC(=O)Nc4cccc(F)c4)[nH]n3)ncnc2c1 [AZD2811] (first compound max 1 µM, 7x7, partner max 1 µM)")
0.0906
>>> measuredvalue("NC1(C(=O)N[C@@H](CCO)c2ccc(Cl)cc2)CCN(c2ncnc3[nH]ccc23)CC1 [Capivasertib] + C[C@@H]1COCCN1C2=NC(=NC(=C2)C3(CC3)[S@](=N)(=O)C)C4=C5C=CNC5=NC=C4 [AZD6738] (first compound max 10 µM, 7x7, partner max 10 µM)")
-0.0632
>>> measuredvalue("CCN(CCO)CCCOc1ccc2c(Nc3cc(CC(=O)Nc4cccc(F)c4)[nH]n3)ncnc2c1 [AZD2811] + O=C(c1cc(Cc2n[nH]c(=O)c3ccccc23)ccc1F)N1CCN(C(=O)C2CC2)CC1 [Olaparib] (first compound max 1 µM, 7x7, partner max 10 µM)")
0.0355
>>> measuredvalue("C[C@@H]1COCCN1c1cc(C2([S@](C)(=N)=O)CC2)nc(-c2ccnc3[nH]ccc23)n1 [AZD6738] + O=C(c1cc(Cc2n[nH]c(=O)c3ccccc23)ccc1F)N1CCN(C(=O)C2CC2)CC1 [Olaparib] (first compound max 10 µM, 7x7, partner max 10 µM)")
0.0206
>>> measuredvalue("CN(CCO)CC[C@H](CSc1ccccc1)Nc1ccc(S(=O)(=O)NC(=O)c2ccc(N3CCC([C@@H](O)c4ccccc4-c4ccc(Cl)cc4)CC3)cc2)cc1S(=O)(=O)C(F)(F)F [AZD4320] + CN(C)CCCOc1ccc(-c2ccc3ncc4c(c3c2)n(C2CCOCC2)c(=O)n4C)cn1 [AZD0156] (first compound max 1 µM, 7x7, partner max 1 µM)")
-0.0078

Qu. Please report the recorded Bliss excess for Cc1cc2ncnn2cc1Nc1ncc2c(n1)n(C1CCOCC1)c(=O)n2C [AZD7648] + C[C@@H]1COCCN1C2=NC(=NC(=C2)C3(CC3)[S@](=N)(=O)C)C4=C5C=CNC5=NC=C4 [AZD6738] (first compound max 10 µM, 7x7, partner max 10 µM) .
Ans. 0.0024

Qu. Please report the recorded Bliss excess for CS(=O)(=O)CCNCc1ccc(-c2ccc3ncnc(Nc4ccc(OCc5cccc(F)c5)c(Cl)c4)c3c2)o1 [Lapatinib] + C[C@@H](Oc1cc(-c2cnn(C3CCNCC3)c2)cnc1N)c1c(Cl)ccc(F)c1Cl [Crizotinib] (first compound max 10 µM, 7x7, partner max 10 µM) .
Ans. 0.0028

Qu. Please report the recorded Bliss excess for CC(=O)c1c(C)c2cnc(Nc3ccc(N4CCNCC4)cn3)nc2n(C2CCCC2)c1=O [Palbociclib] + Cn1cnc2c(F)c(Nc3ccc(Br)cc3Cl)c(C(=O)NOCCO)cc21 [Selumetinib] (first compound max 10 µM, 7x7, partner max 10 µM) .
Ans. 0.068

Qu. Please report the recorded Bliss excess for Cn1cnc2c(F)c(Nc3ccc(Br)cc3Cl)c(C(=O)NOCCO)cc21 [Selumetinib] + C=CCn1c(=O)c2cnc(Nc3ccc(N4CCN(C)CC4)cc3)nc2n1-c1cccc(C(C)(C)O)n1 [AZD1775] (first compound max 10 µM, partner max 1 µM) .
Ans. -0.0497

Qu. Please report the recorded Bliss excess for CN(C)CCCOc1ccc(-c2ccc3ncc4c(c3c2)n(C2CCOCC2)c(=O)n4C)cn1 [AZD0156] + C=CCn1c(=O)c2cnc(Nc3ccc(N4CCN(C)CC4)cc3)nc2n1-c1cccc(C(C)(C)O)n1 [AZD1775] (first compound max 1 µM, partner max 1 µM) .
Ans. 0.0039

Qu. Please report the recorded Bliss excess for COc1cc2c(cc1OCCCCCOc1cc3c(cc1OC)C(=O)N1C=C(C)C[C@H]1C=N3)N=C[C@@H]1CC(C)=CN1C2=O [SG3199] + O=C(c1cc(Cc2n[nH]c(=O)c3ccccc23)ccc1F)N1CCN(C(=O)C2CC2)CC1 [Olaparib] (first compound max 0.001 µM, 7x7, partner max 10 µM) .
Ans. -0.0167

----------
tested on: MKN28 (Gastric Carcinoma); test: Bliss excess, mean over the matrix (fraction); higher = more synergy
recordedEndpoint: Bliss excess
Just the number, please.

>>> measuredvalue("CC1(C)CCC(CN2CCN(c3ccc(C(=O)NS(=O)(=O)c4ccc(NCC5CCOCC5)c([N+](=O)[O-])c4)c(Oc4cnc5[nH]ccc5c4)c3)CC2)=C(c2ccc(Cl)cc2)C1 [Venetoclax] + C[C@@H](Nc1cc(F)cc(F)c1)c1cc(C(=O)N(C)C)cc2c(=O)cc(N3CCOCC3)oc12 [AZD8186] (first compound max 1 µM, 7x7, partner max 3 µM)")
-0.0248
>>> measuredvalue("CC1(C)CCC(CN2CCN(c3ccc(C(=O)NS(=O)(=O)c4ccc(NCC5CCOCC5)c([N+](=O)[O-])c4)c(Oc4cnc5[nH]ccc5c4)c3)CC2)=C(c2ccc(Cl)cc2)C1 [Venetoclax] + CN(C)CCCOc1ccc(-c2ccc3ncc4c(c3c2)n(C2CCOCC2)c(=O)n4C)cn1 [AZD0156] (first compound max 1 µM, 7x7, partner max 1 µM)")
0.0042
>>> measuredvalue("NC1(C(=O)N[C@@H](CCO)c2ccc(Cl)cc2)CCN(c2ncnc3[nH]ccc23)CC1 [Capivasertib] + CC(=O)c1c(C)c2cnc(Nc3ccc(N4CCNCC4)cn3)nc2n(C2CCCC2)c1=O [Palbociclib] (first compound max 10 µM, 7x7, partner max 10 µM)")
-0.0459

Qu. Please report the recorded Bliss excess for NC1(C(=O)N[C@@H](CCO)c2ccc(Cl)cc2)CCN(c2ncnc3[nH]ccc23)CC1 [Capivasertib] + Cn1cnc2c(F)c(Nc3ccc(Br)cc3Cl)c(C(=O)NOCCO)cc21 [Selumetinib] (first compound max 10 µM, 7x7, partner max 10 µM) .
Ans. -0.05

Qu. Please report the recorded Bliss excess for NC1(C(=O)N[C@@H](CCO)c2ccc(Cl)cc2)CCN(c2ncnc3[nH]ccc23)CC1 [Capivasertib] + CC(C)n1c(=O)n(C)c2cnc3cc(F)c(-c4ccc(OCCCN5CCCCC5)nc4)cc3c21 [AZD1390] (first compound max 10 µM, 7x7, partner max 0.3 µM) .
Ans. -0.0634

Qu. Please report the recorded Bliss excess for CN(CCO)CC[C@H](CSc1ccccc1)Nc1ccc(S(=O)(=O)NC(=O)c2ccc(N3CCC([C@@H](O)c4ccccc4-c4ccc(Cl)cc4)CC3)cc2)cc1S(=O)(=O)C(F)(F)F [AZD4320] + C[C@@H]1COCCN1C2=NC(=NC(=C2)C3(CC3)[S@](=N)(=O)C)C4=C5C=CNC5=NC=C4 [AZD6738] (first compound max 1 µM, 7x7, partner max 10 µM) .
Ans. -0.0528

Qu. Please report the recorded Bliss excess for COc1cccc(OCCCN)c1-c1cc(Nc2cnc(C#N)cn2)n[nH]1 [Prexasertib] + O=C(c1cc(Cc2n[nH]c(=O)c3ccccc23)ccc1F)N1CCN(C(=O)C2CC2)CC1 [Olaparib] (first compound max 1 µM, 7x7, partner max 10 µM) .
Ans. -0.133

Qu. Please report the recorded Bliss excess for CC1(C)CCC(CN2CCN(c3ccc(C(=O)NS(=O)(=O)c4ccc(NCC5CCOCC5)c([N+](=O)[O-])c4)c(Oc4cnc5[nH]ccc5c4)c3)CC2)=C(c2ccc(Cl)cc2)C1 [Venetoclax] + COc1cc(Nc2ncc3c(n2)-c2ccc(Cl)cc2C(c2c(F)cccc2OC)=NC3)ccc1C(=O)O [Alisertib] (first compound max 1 µM, 7x7, partner max 10 µM) .
Ans. -0.0541

----------
test system: KCL-22 (Chronic Myelogenous Leukemia); assay: combination Emax (second highest fraction inhibited in the dose matrix, 72 h); higher = more inhibition; extreme values may be limits of the assay
recordedEndpoint: combination Emax
Just the number, please.

>>> measuredvalue("NC1(C(=O)N[C@@H](CCO)c2ccc(Cl)cc2)CCN(c2ncnc3[nH]ccc23)CC1 [Capivasertib] + CCN(CCO)CCCOc1ccc2c(Nc3cc(CC(=O)Nc4cccc(F)c4)[nH]n3)ncnc2c1 [AZD2811] (first compound max 10 µM, 7x7, partner max 1 µM)")
0.472

# input for lookup
Qu. Query the reported combination Emax for KCL-22 (Chronic Myelogenous Leukemia); item: COc1nnc2ccc(N3CCC(c4ccc(OCCN5CCN(C)C(=O)[C@H]5C)cc4)CC3)nn12 [AZD5153] + CN(CC[C@H](CSC1=CC=CC=C1)NC2=C(C=C(C=C2)S(=O)(=O)NC(=O)C3=CC=C(C=C3)N4CCC(CC4)[C@H](C5=CC=CC=C5C6=CC=C(C=C6)Cl)O)S(=O)(=O)C(F)(F)F)CCO [AZD4320] (first compound max 1 µM, 7x7, partner max 1 µM)
Ans. 0.963
